# protocol.description: Drug loading efficiency, drug loading content and aqueous solubility of PEG-b-PLA micelles by RP-HPLC
# Assay type: physicochemical
# particulars: PEG-b-PLA micelles in water, aqueous with cosolvent or surfactant or cyclodextrin, Table 1A; PEG-b-PLA micelles; drug to polymer ratio 1:10; initial level 1 mg; mean ± SD, n = 3; read-out: Apparent solubility
recorded.endpoint: solubility (µg/mL)
Your answer should be a plain number; it is taken to be in µg/mL.

Exercise: Can you share its solubility? I mean this compound: CC(=O)O[C@H]1C(=O)[C@@]2(C)[C@H]([C@H](OC(=O)c3ccccc3)[C@]3(O)C[C@H](OC(=O)[C@H](O)[C@@H](NC(=O)c4ccccc4)c4ccccc4)C(C)=C1C3(C)C)[C@]1(OC(C)=O)CO[C@@H]1C[C@@H]2O [PTX, paclitaxel]
Key: 900
